test method notes: Absorbance and fluorescence emission spectra (SpectraMax M2)
Assay type: physicochemical
condition details: MK library, Table 5
reported endpoint: λmax Emission (nm)

INSERT INTO results (compound, test_value) VALUES
  ('Nc1ccc(C2=C3C=CC(N4CCc5ccccc5C4)=[N+]3[B-](F)(F)n3c2ccc3-n2cc(C3CC3)nn2)cc1 [MK66-4]', 587),
  ('CC1CN(C2=[N+]3C(=C(c4ccc(N)cc4)c4ccc(-n5cc(CC6CCCCC6)nn5)n4[B-]3(F)F)C=C2)CC(C)O1 (centres unmarked) [MK20-8]', 563),
  ('CC1CN(C2=[N+]3C(=C(c4ccc(N)cc4)c4ccc(-n5cc(CN(C)Cc6ccccc6)nn5)n4[B-]3(F)F)C=C2)CC(C)O1 (centres unmarked) [MK20-18]', 582),
  ('CCOc1ccccc1CNC1=[N+]2C(=C(c3ccc(N)cc3)c3ccc(-n4cc(CCc5ccccc5)nn4)n3[B-]2(F)F)C=C1 [MK103-19]', 568),
  ('Nc1ccc(C2=C3C=CC(N4CCc5ccccc5C4)=[N+]3[B-](F)(F)n3c2ccc3-n2cc(CO)nn2)cc1 [MK66-70]', 596),
  ('CCOc1ccccc1CNC1=[N+]2C(=C(c3ccc(N)cc3)c3ccc(-n4cc(CC(C)C)nn4)n3[B-]2(F)F)C=C1 [MK103-43]', 563),
  ('CN(Cc1ccccc1)C1=[N+]2C(=C(c3ccc(N)cc3)c3ccc(-n4cc(C5CC5)nn4)n3[B-]2(F)F)C=C1 [MK195-4]', 566),
  ('CC1CN(C2=[N+]3C(=C(c4ccc(N)cc4)c4ccc(-n5cc(CO)nn5)n4[B-]3(F)F)C=C2)CC(C)O1 (centres unmarked) [MK20-70]', 584);

* * *

test method notes: Absorbance and fluorescence emission spectra (SpectraMax M2)
Format: physicochemical
condition details: MKAC compound library; absorbance maximum
reported endpoint: λmax Abs. (nm)

INSERT INTO measurements (compound, test_value) VALUES
  ('CCCCCC(O)c1cn(-c2ccc3n2[B-](F)(F)[N+]2=C(N4CC(C)OC(C)C4)C=CC2=C3c2ccc(NC(C)=O)cc2)nn1 (stereo not drawn) [MKAC20-69]', 469),
  ('CC(=O)Nc1ccc(C2=C3C=CC(N4CCc5ccccc5C4)=[N+]3[B-](F)(F)n3c2ccc3-n2cc(C3CC3)nn2)cc1 [MKAC66-4]', 469),
  ('CC(=O)Nc1ccc(C2=C3C=CC(NCc4cc(F)cc(F)c4)=[N+]3[B-](F)(F)n3c2ccc3-n2cc(CCc3ccccc3)nn2)cc1 [MKAC412-19]', 467),
  ('CC(=O)Nc1ccc(C2=C3C=CC(N4CC(C)OC(C)C4)=[N+]3[B-](F)(F)n3c2ccc3-n2cc(C3CCCC3)nn2)cc1 (stereo not drawn) [MKAC20-5]', 467),
  ('CC(=O)Nc1ccc(C2=C3C=CC(NCc4ccccc4C)=[N+]3[B-](F)(F)n3c2ccc3-n2cc(CC3CCCCC3)nn2)cc1 [MKAC101-8]', 465),
  ('CC(=O)Nc1ccc(C2=C3C=CC(N4CC(C)OC(C)C4)=[N+]3[B-](F)(F)n3c2ccc3-n2cc(CC(C)C)nn2)cc1 (stereo not drawn) [MKAC20-43]', 467),
  ('CCCC(C)c1cn(-c2ccc3n2[B-](F)(F)[N+]2=C(NCc4cc(OC)ccc4OC)C=CC2=C3c2ccc(NC(C)=O)cc2)nn1 (racemic) [MKAC181-3]', 465),
  ('CC(=O)Nc1ccc(C2=C3C=CC(N4CCc5ccccc5C4)=[N+]3[B-](F)(F)n3c2ccc3-n2cc(CC3CCCCC3)nn2)cc1 [MKAC66-8]', 469),
  ('CC(=O)Nc1ccc(C2=C3C=CC(NCc4ccccc4C)=[N+]3[B-](F)(F)n3c2ccc3-n2cc(C3CCCC3)nn2)cc1 [MKAC101-5]', 466),
  ('CC(=O)Nc1ccc(C2=C3C=CC(N(C)Cc4ccccc4)=[N+]3[B-](F)(F)n3c2ccc3-n2cc(CC(C)C)nn2)cc1 [MKAC195-43]', 466),
  ('COc1ccc(OC)c(CNC2=[N+]3C(=C(c4ccc(NC(C)=O)cc4)c4ccc(-n5cc(C6CCCC6)nn5)n4[B-]3(F)F)C=C2)c1 [MKAC181-5]', 464),
  ('CCCC(C)c1cn(-c2ccc3n2[B-](F)(F)[N+]2=C(NCc4ccccc4C)C=CC2=C3c2ccc(NC(C)=O)cc2)nn1 (stereo not drawn) [MKA101-3]', 464);

Entry source: patent US9513294B2
